# Target entity: Cytochrome P450 2C19 (Homo sapiens) (UniProt P33261)
# Sequence (P33261 whole entry, looked up): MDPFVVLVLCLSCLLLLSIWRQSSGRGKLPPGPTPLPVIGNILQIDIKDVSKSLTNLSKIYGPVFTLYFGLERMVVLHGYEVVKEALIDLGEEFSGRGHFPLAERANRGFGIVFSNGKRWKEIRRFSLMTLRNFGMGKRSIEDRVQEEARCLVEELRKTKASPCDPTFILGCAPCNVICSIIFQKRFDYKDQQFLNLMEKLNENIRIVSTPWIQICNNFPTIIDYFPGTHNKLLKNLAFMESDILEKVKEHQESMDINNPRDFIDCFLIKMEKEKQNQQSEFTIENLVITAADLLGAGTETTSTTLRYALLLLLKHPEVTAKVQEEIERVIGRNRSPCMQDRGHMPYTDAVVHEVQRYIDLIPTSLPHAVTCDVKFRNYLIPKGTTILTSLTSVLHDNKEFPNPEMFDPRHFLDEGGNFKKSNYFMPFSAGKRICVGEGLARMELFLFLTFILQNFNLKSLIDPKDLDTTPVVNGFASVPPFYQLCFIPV
# Procedure summary: Cytochrome panel assay with activity outcomes
# Experimental setup: recombinant CYP, pro-luciferin dealkylation, luminescence, p450-cyp2c19; series mostly up to 57.1 µM
In all, about 16,000 compounds went through this assay and about 5,800 (36%) were called active. Inconclusive results (about 23%) are left out. Calls follow the shape of the dose curve; as a rule, active = well fitted curve in the direction sought with a large enough effect; inconclusive = small, poorly fitted or top-dose-only effect, or effect the other way; inactive = no such curve, though single readings can be large or run the other way. Some of the results follow.
Outcome codes: active, inactive

compound=Cc1cccc(C)c1NC(=O)CN1CCN(CCCC(c2ccc(F)cc2)c2ccc(F)cc2)CC1 group=inactive
compound=COC(=O)c1cc(/C=C/c2ccccc2)on1 group=active
compound="CC(C)COP(=O)(c1ccc(N(C)C)cc1)C(O)c1ccccc1F (stereo unspecified)" group=active
compound="CC(C)COP(=O)(OCC(C)C)C(O)c1ccccc1F (stereo unspecified)" group=inactive
compound=Cc1c(C(=O)NCCC2=CCCCC2)cccc1[N+](=O)[O-] group=active
compound=CCOC(=O)c1oc2ccccc2c1NC(=O)c1ccc2c(c1)OCO2 group=active
